molecular target: human Nav1.8 (Homo sapiens (Human)); experiment: E-VIPR optical membrane potential assay with electrical stimulation; details: HEK cells expressing human Nav1.8
pIC50: −log10 of the molar value.
Record MET whenever pIC50 is at 8 or higher; record NOT MET when lower.

Asked: I'd appreciate it if you could say whether COc1c(F)cccc1Oc1ccc(C(F)(F)F)cc1C(=O)Nc1cccc(S(N)(=O)=O)c1 [Compound 29] has pIC50 at least equal to 8.
Given back: MET

Asked: I'd appreciate it if you could say whether NS(=O)(=O)c1cccc(NC(=O)c2cc(C(F)(F)F)ccc2Oc2ccc(Cl)cc2)c1 [Compound 24] has pIC50 at least equal to 8.
Given back: NOT MET

Asked: I'd appreciate it if you could say whether COc1ccc(Oc2cccc(C(F)(F)F)c2C(=O)Nc2cccc(S(N)(=O)=O)c2)c(Cl)c1 [Compound 75] has pIC50 at least equal to 8.
Given back: MET

Asked: I'd appreciate it if you could say whether NS(=O)(=O)c1cccc(NC(=O)c2ccc(C(F)(F)C(F)(F)F)cc2Oc2ccc(F)cc2)c1 [Compound 69] has pIC50 at least equal to 8.
Given back: NOT MET

Asked: I'd appreciate it if you could say whether COc1ccccc1Oc1cccc(C(F)(F)F)c1C(=O)Nc1cccc(S(N)(=O)=O)c1 [Compound 57] has pIC50 at least equal to 8.
Given back: NOT MET

Asked: I'd appreciate it if you could say whether COc1cc(F)ccc1Oc1cccc(C(F)(F)F)c1C(=O)Nc1cccc(S(N)(=O)=O)c1 [Compound 13] has pIC50 at least equal to 8.
Given back: MET

Asked: I'd appreciate it if you could say whether NS(=O)(=O)c1cccc(NC(=O)c2cc(Cl)ccc2Oc2ccc(F)cc2)c1 [Compound 5] has pIC50 at least equal to 8.
Given back: NOT MET

Asked: I'd appreciate it if you could say whether Cc1cc(F)ccc1Oc1cc(Cl)c(Cl)cc1C(=O)Nc1cccc(S(N)(=O)=O)c1 [Compound 83] has pIC50 at least equal to 8.
Given back: MET

Asked: I'd appreciate it if you could say whether NS(=O)(=O)c1cccc(NC(=O)c2c(Cl)cc(Cl)cc2Oc2ccc(OC(F)(F)F)cc2)c1 [Compound 97] has pIC50 at least equal to 8.
Given back: MET

Asked: I'd appreciate it if you could say whether CCOc1ccc(Oc2cc(C(F)(F)F)ccc2C(=O)Nc2cccc(S(N)(=O)=O)c2)cc1 [Compound 45] has pIC50 at least equal to 8.
Given back: NOT MET

Continuing:
Asked: I'd appreciate it if you could say whether NS(=O)(=O)c1cccc(NC(=O)c2c(Oc3ccc(F)cc3Cl)cccc2C(F)(F)F)c1 [Compound 33] has pIC50 at least equal to 8.
Given back: MET

Asked: I'd appreciate it if you could say whether COc1ccc(Oc2cc(C(F)(F)F)ccc2C(=O)Nc2cccc(S(N)(=O)=O)c2)cc1F [Compound 43] has pIC50 at least equal to 8.
Given back: NOT MET

====

biological target: human Nav1.8 (Homo sapiens (Human), UniProt Q9Y5Y9); assay: E-VIPR optical membrane potential assay with electrical stimulation; format: cell-based; settings: HEK cells expressing human Nav1.8
Sequence (Q9Y5Y9 whole entry): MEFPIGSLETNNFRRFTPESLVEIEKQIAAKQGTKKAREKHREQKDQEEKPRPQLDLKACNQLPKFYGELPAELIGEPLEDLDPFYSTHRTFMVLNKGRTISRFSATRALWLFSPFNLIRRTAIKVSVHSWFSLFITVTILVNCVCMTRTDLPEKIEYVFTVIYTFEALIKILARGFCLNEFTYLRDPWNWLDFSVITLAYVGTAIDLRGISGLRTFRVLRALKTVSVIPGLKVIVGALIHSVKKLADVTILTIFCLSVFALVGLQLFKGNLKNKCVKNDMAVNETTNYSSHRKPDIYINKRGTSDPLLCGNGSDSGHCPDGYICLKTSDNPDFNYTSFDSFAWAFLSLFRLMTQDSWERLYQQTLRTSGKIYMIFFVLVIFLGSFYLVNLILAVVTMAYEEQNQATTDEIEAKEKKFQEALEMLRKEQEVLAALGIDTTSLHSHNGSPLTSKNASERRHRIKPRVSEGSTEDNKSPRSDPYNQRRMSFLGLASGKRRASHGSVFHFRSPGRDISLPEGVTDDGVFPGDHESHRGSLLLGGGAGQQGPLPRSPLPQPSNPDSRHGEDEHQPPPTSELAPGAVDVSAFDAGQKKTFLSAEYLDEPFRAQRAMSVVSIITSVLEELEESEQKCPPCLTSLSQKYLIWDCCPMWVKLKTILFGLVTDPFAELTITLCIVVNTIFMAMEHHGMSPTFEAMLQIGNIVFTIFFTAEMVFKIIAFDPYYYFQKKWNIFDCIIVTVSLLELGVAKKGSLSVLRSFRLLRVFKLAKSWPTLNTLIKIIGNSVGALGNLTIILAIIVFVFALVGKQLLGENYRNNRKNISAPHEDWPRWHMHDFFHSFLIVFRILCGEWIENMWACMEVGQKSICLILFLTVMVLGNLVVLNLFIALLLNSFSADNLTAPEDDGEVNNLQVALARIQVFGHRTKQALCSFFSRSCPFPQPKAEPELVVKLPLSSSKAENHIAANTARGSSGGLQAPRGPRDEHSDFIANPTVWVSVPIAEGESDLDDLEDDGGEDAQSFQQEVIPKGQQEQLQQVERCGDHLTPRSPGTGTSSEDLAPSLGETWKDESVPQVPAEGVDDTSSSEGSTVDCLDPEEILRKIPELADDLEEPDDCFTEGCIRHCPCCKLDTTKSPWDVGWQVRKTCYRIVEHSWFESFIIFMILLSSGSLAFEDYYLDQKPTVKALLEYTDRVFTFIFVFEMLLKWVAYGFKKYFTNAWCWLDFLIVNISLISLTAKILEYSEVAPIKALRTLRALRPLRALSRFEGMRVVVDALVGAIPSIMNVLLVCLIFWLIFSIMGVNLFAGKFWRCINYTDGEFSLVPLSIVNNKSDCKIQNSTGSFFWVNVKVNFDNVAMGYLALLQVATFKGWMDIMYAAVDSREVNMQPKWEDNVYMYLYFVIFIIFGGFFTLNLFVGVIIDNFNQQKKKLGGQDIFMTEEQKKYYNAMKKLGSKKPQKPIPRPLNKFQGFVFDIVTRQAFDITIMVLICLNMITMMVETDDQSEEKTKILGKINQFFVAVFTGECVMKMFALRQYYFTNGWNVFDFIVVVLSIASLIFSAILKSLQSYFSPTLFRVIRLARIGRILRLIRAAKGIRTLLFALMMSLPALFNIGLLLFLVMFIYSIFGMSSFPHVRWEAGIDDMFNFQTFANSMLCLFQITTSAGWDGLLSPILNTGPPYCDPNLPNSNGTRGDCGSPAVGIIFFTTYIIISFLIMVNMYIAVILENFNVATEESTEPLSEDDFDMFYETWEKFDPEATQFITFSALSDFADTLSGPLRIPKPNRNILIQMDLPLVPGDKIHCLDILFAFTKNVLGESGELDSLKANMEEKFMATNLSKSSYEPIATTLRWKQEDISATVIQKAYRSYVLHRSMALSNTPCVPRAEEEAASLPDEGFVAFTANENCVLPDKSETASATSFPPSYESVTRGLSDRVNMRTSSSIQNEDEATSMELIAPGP
Measured parameter: pIC50
# pIC50 is unitless: minus log10 of the molar concentration; print number only

Asked: Report value only: pIC50, human Nav1.8 (Homo sapiens (Human), UniProt Q9Y5Y9), "COc1cc(F)ccc1Oc1cc(Cl)c(Cl)cc1C(=O)Nc1cccc(S(N)(=O)=O)c1"
Given back: 9.00

Asked: Report value only: pIC50, human Nav1.8 (Homo sapiens (Human), UniProt Q9Y5Y9), "NS(=O)(=O)c1cccc(NC(=O)c2c(Cl)cc(Cl)cc2Oc2ccc(F)cc2)c1"
Given back: 8.30

Asked: Report value only: pIC50, human Nav1.8 (Homo sapiens (Human), UniProt Q9Y5Y9), "N#Cc1ccc(C(=O)Nc2cccc(S(N)(=O)=O)c2)c(Oc2ccc(F)cc2Cl)c1"
Given back: 7.57

Attention now turns to another entry.
Asked: Report value only: pIC50, human Nav1.8 (Homo sapiens (Human), UniProt Q9Y5Y9), "COc1ccc(Oc2cc(C(F)(F)F)ccc2C(=O)Nc2cccc(S(N)(=O)=O)c2)c(C)c1"
Given back: 7.92
